Listing of recorded pKd by entry.
- targetOrSystem: T1, PUF4 RNA-binding domain (Saccharomyces cerevisiae, UniProt P25339 537-888)
- T1 sequence: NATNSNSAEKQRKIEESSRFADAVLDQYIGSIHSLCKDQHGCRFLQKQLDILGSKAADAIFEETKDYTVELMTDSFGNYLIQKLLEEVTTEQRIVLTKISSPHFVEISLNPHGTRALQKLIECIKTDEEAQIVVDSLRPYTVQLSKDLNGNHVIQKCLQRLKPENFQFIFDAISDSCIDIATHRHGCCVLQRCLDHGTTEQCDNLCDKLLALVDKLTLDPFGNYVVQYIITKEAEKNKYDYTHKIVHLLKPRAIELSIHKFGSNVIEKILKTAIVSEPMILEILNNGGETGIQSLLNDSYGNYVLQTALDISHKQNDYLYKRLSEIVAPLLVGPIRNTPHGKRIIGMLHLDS
- assayProtocol: Mg; RNA-MaP; 20 mM Na-HEPES pH 7.4, 30 mM KOAc, 0.75 mM MgCl2, 0.1% Tween-20, 5% glycerol, 0.1 mg/mL BSA, 2 mM DTT; 25 C; 0.0125-409.6 nM protein
- conditionNotes: tags: N-His6-TEV cleaved; C-SNAP kept, Cy3B-labelled; label: tethered on chip by stalled RNA polymerase
pKd: −log10 of the molar value.

{"columns": ["binder", "modifier", "pKd"],
 "data": [
  ["UCUCUUUGUACCGGCCUCUCUU (ssRNA) [Ic_S1_P5E.1_K5.1_C5.1_H5.1_A5.1_[T5C]_[T6C]_[A7G]_F5.1_[T8G]_[T9C]_[A10C]_T5.1]", "<", 5.64],
  ["Ia_S2_P3E.1_K3.1_C3.1_H3.1_[G2C]_A3.1_F3.1_T3.1 (ssRNA) RNA: UUUGAUUAAUAUGAUAUCGUUCUUUCUUCUAUAUAUUCUUUCUCGAUAUCAUAUUAAUCUUU", "=", 6.33],
  ["UCUCUUUGCAUUGUUAUCUCUU (ssRNA) [Ib_S1_P5E.1_K5.1_C5.1_H5.1_[T3C]_A5.1_[A7G]_F5.1_T5.1]", "=", 5.65],
  ["ACAAACUCUCGUAUUAUUAACAAAC (ssRNA) [Ie_S3_P5E.1_K5.1_C5.1_H5.1_[+1CTC]_A5.1_F5.1_T5.1]", "=", 5.74],
  ["Ic_S4_P4E.1_K4.1_C4.1_H4.1_A4.1_[T5C]_[A6T]_F4.1_[A9T]_T4.1 (ssRNA) RNA: UUUGACAACUGAUCGUUCUUUCUUGUACUUUUUUCUUUCUCGAUCAGUUGUCUUU", "=", 8.20],
  ["UCUCUUUGUACGCCAUCUCUU (ssRNA) [Ic_S1_P4E.1_K4.1_C4.1_H4.1_A4.1_[T5C]_[A6G]_[T7C]_F4.1_[T8C]_T4.1]", "=", 7.53],
  ["UCUCUUUCUACACUUAUUAUUUCUCUU (ssRNA) [Id_iii_S1_P5E.7_K5.3_C5.3_H5.3_A5.1_F5.1_T5.2_[A12T]]", "<", 5.64],
  ["UCUCUUAAUAUAUAUAUGUCUCUU (ssRNA) [Id_ii_S1_P3E.3_K3.2_C3.2_[C-2A]_[T-1A]_H3.2_A3.1_F3.1_T3.2_[A10G]]", "=", 6.16],
  ["ACAAACGCACACUAUUAGAACAAAC (ssRNA) [Id_ii_S3_P4E.4_K4.3_C4.2_[C-2G]_[T-1C]_H4.3_A4.1_F4.1_T4.2_[T11A]]", "<", 5.64],
  ["Ib_S2_P5E.1_K5.1_C5.1_H5.1_[G2T]_A5.1_F5.1_[A10C]_T5.1 (ssRNA) RNA: UUUGAUUAAUAUGAUAUCGUUCUUUCUUUUAUUAUUCUUCUUUCUCGAUAUCAUAUUAAUCUUU", "<", 5.64],
  ["UCUCUUUGUAACGAUUCUCUU (ssRNA) [Ic_S1_P4E.1_K4.1_C4.1_H4.1_A4.1_[T5A]_[A6C]_[T7G]_F4.1_[T8A]_[A9T]_T4.1]", "=", 6.05],
  ["UCUCUUUUUUAUAUAUUAGUUCUCUU (ssRNA) [Id_iii_S1_P4E.6_K4.2_C4.3_[C-2T]_H4.2_A4.1_F4.1_T4.2]", "=", 7.96],
  ["Ic_S2_P5E.1_K5.1_C5.1_H5.1_A5.1_[T6C]_F5.1_[T8A]_[T9A]_[A10C]_T5.1 (ssRNA) RNA: UUUGAUUAAUAUGAUAUCGUUCUUUCUUGUAUCAAACUUCUUUCUCGAUAUCAUAUUAAUCUUU", "=", 6.77],
  ["UCUCUUUGUAUCCUAUUAUCUCUU (ssRNA) [Ie_S1_P4E.1_K4.1_C4.1_H4.1_[+4TCC]_A4.1_F4.1_T4.1]", "=", 8.23],
  ["UCUCUUUGUAUUCUCUUAUUAUCUCUU (ssRNA) [Ie_S1_P5E.1_K5.1_C5.1_H5.1_A5.1_[+5TCTCT]_F5.1_T5.1]", "=", 7.53],
  ["UCUCUUCUUGUCCCAUAUAUAUCUCUU (ssRNA) [Ie_S1_P3E.2_K3.1_C3.2_H3.1_[+3CCC]_A3.1_F3.1_T3.2]", "=", 7.19],
  ["ACAAACUGCAUAUUACAAAC (ssRNA) [Ib_S3_P3E.1_K3.1_C3.1_H3.1_[T3C]_A3.1_F3.1_[A8T]_T3.1]", "=", 7.00],
  ["Ib_S2_P4E.1_K4.1_C4.1_H4.1_[G2C]_[T3A]_A4.1_F4.1_T4.1 (ssRNA) RNA: UUUGAUUAAUAUGAUAUCGUUCUUUCUUCAAUAUUAUUCUUUCUCGAUAUCAUAUUAAUCUUU", "<", 5.64],
  ["UCUCUUUGUCUCUCAUAUUAUCUCUU (ssRNA) [Ie_S1_P4E.1_K4.1_C4.1_H4.1_[+3CTCTC]_A4.1_F4.1_T4.1]", "=", 6.02],
  ["Ic_S4_P4E.1_K4.1_C4.1_H4.1_A4.1_[T5G]_[A6T]_F4.1_[T8A]_[A9C]_T4.1 (ssRNA) RNA: UUUGACAACUGAUCGUUCUUUCUUGUAGUUACUUCUUUCUCGAUCAGUUGUCUUU", "=", 6.06],
  ["ACAAACAUUAUAUUAUUAGGACAAAC (ssRNA) [Id_ii_S3_P5E.3_K5.2_C5.2_[C-2A]_H5.2_A5.1_F5.1_T5.2_[T11G]_[A12G]]", "=", 7.03],
  ["Id_ii_S2_P5E.4_K5.3_C5.2_[C-2G]_H5.3_A5.1_F5.1_T5.2_[T11A]_[A12T] (ssRNA) RNA: UUUGAUUAAUAUGAUAUCGUUCUUUCUGUACACUUAUUAAUUUCUUUCUCGAUAUCAUAUUAAUCUUU", "=", 8.86],
  ["Ic_S2_P3E.1_K3.1_C3.1_H3.1_A3.1_[T5C]_[A6T]_F3.1_[T7A]_[A8T]_T3.1 (ssRNA) RNA: UUUGAUUAAUAUGAUAUCGUUCUUUCUUGUACUAUUUCUUUCUCGAUAUCAUAUUAAUCUUU", "=", 8.42],
  ["Ib_S2_P4E.1_K4.1_C4.1_H4.1_[T1G]_[G2T]_A4.1_F4.1_T4.1 (ssRNA) RNA: UUUGAUUAAUAUGAUAUCGUUCUUUCUGUUAUAUUAUUCUUUCUCGAUAUCAUAUUAAUCUUU", "=", 8.11],
  ["Ic_S4_P5E.1_K5.1_C5.1_H5.1_A5.1_[T5A]_[A7C]_F5.1_[T8A]_[A10C]_T5.1 (ssRNA) RNA: UUUGACAACUGAUCGUUCUUUCUUGUAAUCAUCUUCUUUCUCGAUCAGUUGUCUUU", "=", 6.36]
]}
